Data provenance is ChEMBL document CHEMBL5724914.

Conditions: human gut metagenome, 24 h, 2 µM; note: call rule not given here
metric: Bacterial Biotransformation

Check out these entries, answers already filled in.
Q) Any idea what Bacterial Biotransformation was measured for C=CCN1CC[C@]23c4c5ccc(O)c4O[C@H]2C(=O)CC[C@@]3(O)[C@H]1C5 ?
A) Compound NOT metabolized

Q) Any idea what Bacterial Biotransformation was measured for COC(=O)C1=C(C)NC(C)=C(C(=O)OC(C)C)C1c1cccc2nonc12 (stereo not given) ?
A) Compound metabolized

Q) Any idea what Bacterial Biotransformation was measured for CCOc1ccc(NC(C)=O)cc1 ?
A) Compound NOT metabolized

Q) Any idea what Bacterial Biotransformation was measured for C[C@@H](CO)NC(=O)[C@@H]1C=C2c3cccc4[nH]cc(c34)C[C@H]2N(C)C1.O=C(O)/C=C\C(=O)O [ERGONOVINE MALEATE] ?
A) Compound metabolized

Q) Any idea what Bacterial Biotransformation was measured for CC(O)(CS(=O)(=O)c1ccc(F)cc1)C(=O)Nc1ccc(C#N)c(C(F)(F)F)c1 (stereo not given) [BICALUTAMIDE] ?
A) Compound NOT metabolized

Continuing:
Q) Any idea what Bacterial Biotransformation was measured for CCCCc1nc(Cl)c(CO)n1Cc1ccc(-c2ccccc2-c2nn[nH]n2)cc1 ?
A) Compound metabolized

Q) Any idea what Bacterial Biotransformation was measured for CC(C)c1nc(CN(C)C(=O)N[C@H](C(=O)N[C@@H](Cc2ccccc2)C[C@H](O)[C@H](Cc2ccccc2)NC(=O)OCc2cncs2)C(C)C)cs1 ?
A) Compound metabolized

====

Conditions: human gut metagenome, 24 h, 2 µM
metric: Bacterial Biotransformation

Check out these entries, answers already filled in.
Q) Any idea what Bacterial Biotransformation was measured for O=C(CCCN1CCC(O)(c2ccc(Cl)cc2)CC1)c1ccc(F)cc1 ?
A) Compound NOT metabolized

Q) Any idea what Bacterial Biotransformation was measured for OC(CCN1CCCCC1)(c1ccccc1)C1CC2C=CC1C2 (stereo unspecified) ?
A) Compound NOT metabolized

Q) Any idea what Bacterial Biotransformation was measured for COC(=O)C1=C(C)NC(C)=C(C(=O)OC(C)C)C1c1cccc2nonc12 (stereo unspecified) ?
A) Compound metabolized

Q) Any idea what Bacterial Biotransformation was measured for Cc1ccc(S(=O)(=O)NC(=O)NN2CCCCCC2)cc1 [TOLAZAMIDE] ?
A) Compound metabolized

Q) Any idea what Bacterial Biotransformation was measured for CN(C)C(=O)C(CCN1CCC(O)(c2ccc(Cl)cc2)CC1)(c1ccccc1)c1ccccc1 [LOPERAMIDE] ?
A) Compound metabolized

Q) Any idea what Bacterial Biotransformation was measured for CS(=O)(=O)O.O.O.O.O=C1Cc2cc(CCN3CCN(c4nsc5ccccc45)CC3)c(Cl)cc2N1 [ZIPRASIDONE MESYLATE] ?
A) Compound NOT metabolized

Q) Any idea what Bacterial Biotransformation was measured for C[C@@H]1C[C@H]2[C@@H]3CCC4=CC(=O)C=C[C@]4(C)[C@@]3(F)[C@@H](O)C[C@]2(C)[C@@]1(O)C(=O)CO ?
A) Compound NOT metabolized

Q) Any idea what Bacterial Biotransformation was measured for CCCc1nn(C)c2c(=O)[nH]c(-c3cc(S(=O)(=O)N4CCN(C)CC4)ccc3OCC)nc12.O=C(O)CC(O)(CC(=O)O)C(=O)O [SILDENAFIL CITRATE] ?
A) Compound NOT metabolized

Continuing:
Q) Any idea what Bacterial Biotransformation was measured for CC(C)(Oc1ccc(CCNC(=O)c2ccc(Cl)cc2)cc1)C(=O)O [BEZAFIBRATE] ?
A) Compound metabolized

Q) Any idea what Bacterial Biotransformation was measured for Clc1ccc(Cn2c(CN3CCCC3)nc3ccccc32)cc1 ?
A) Compound metabolized

Q) Any idea what Bacterial Biotransformation was measured for CN1CCc2c(c3ccccc3n2Cc2ccccc2)C1.CN1CCc2c(c3ccccc3n2Cc2ccccc2)C1.O=S(=O)(O)c1cccc2c(S(=O)(=O)O)cccc12 ?
A) Compound NOT metabolized

Q) Any idea what Bacterial Biotransformation was measured for CC(C)(C)NC[C@H](O)COc1ccccc1C1CCCC1.CC(C)(C)NC[C@H](O)COc1ccccc1C1CCCC1.O=S(=O)(O)O [PENBUTOLOL SULFATE] ?
A) Compound metabolized

Q) Any idea what Bacterial Biotransformation was measured for CN(C(=O)CN(CCO)CC(=O)N(C)C(C)(C)Cc1ccccc1)C(C)(C)Cc1ccccc1 ?
A) Compound metabolized

Q) Any idea what Bacterial Biotransformation was measured for CCCCC(=O)N(Cc1ccc(-c2ccccc2-c2nnn[nH]2)cc1)[C@H](C(=O)O)C(C)C ?
A) Compound metabolized

Q) Any idea what Bacterial Biotransformation was measured for CCc1nn(CCCN2CCN(c3cccc(Cl)c3)CC2)c(=O)n1CCOc1ccccc1 ?
A) Compound metabolized

Q) Any idea what Bacterial Biotransformation was measured for Nc1nc2ccc(OC(F)(F)F)cc2s1 ?
A) Compound metabolized

Q) Any idea what Bacterial Biotransformation was measured for CC(Oc1c(Cl)cccc1Cl)C1=NCCN1 (stereo unspecified) ?
A) Compound NOT metabolized

Q) Any idea what Bacterial Biotransformation was measured for CCOC(=O)[C@H](CCc1ccccc1)N[C@H]1CCc2ccccc2N(CC(=O)O)C1=O ?
A) Compound metabolized

Q) Any idea what Bacterial Biotransformation was measured for COC1=CC(=O)C[C@@H](C)[C@]12Oc1c(Cl)c(OC)cc(OC)c1C2=O ?
A) Compound metabolized

Q) Any idea what Bacterial Biotransformation was measured for CC(C)c1c(C(=O)Nc2ccccc2)c(-c2ccccc2)c(-c2ccc(F)cc2)n1CC[C@@H](O)C[C@@H](O)CC(=O)O ?
A) Compound metabolized

Q) Any idea what Bacterial Biotransformation was measured for C#C[C@]1(O)CC[C@H]2[C@@H]3CCC4=CC(=O)CC[C@@H]4[C@H]3CC[C@@]21CC ?
A) Compound metabolized

Q) Any idea what Bacterial Biotransformation was measured for CN1CCOC(c2ccccc2)c2ccccc2C1 (stereo unspecified) ?
A) Compound metabolized

Q) Any idea what Bacterial Biotransformation was measured for CC(=O)OCC(=O)[C@@]1(O)[C@@H](C)C[C@H]2[C@@H]3CCC4=CC(=O)C=C[C@]4(C)[C@@]3(F)[C@@H](O)C[C@@]21C [BETAMETHASONE ACETATE] ?
A) Compound metabolized

Q) Any idea what Bacterial Biotransformation was measured for CNCCC(Oc1ccc(C(F)(F)F)cc1)c1ccccc1 (stereo unspecified) ?
A) Compound NOT metabolized

Q) Any idea what Bacterial Biotransformation was measured for CCCc1nc(C(C)(C)O)c(C(=O)OCc2oc(=O)oc2C)n1Cc1ccc(-c2ccccc2-c2nnn[nH]2)cc1 ?
A) Compound metabolized

Q) Any idea what Bacterial Biotransformation was measured for Cc1ccc(S(=O)(=O)NC(=O)NN2CC3CCCC3C2)cc1 (stereo unspecified) [GLICLAZIDE] ?
A) Compound metabolized

====

Details: human gut metagenome, 24 h, 2 µM
metric: Bacterial Biotransformation

Check out these entries, answers already filled in.
Q) Any idea what Bacterial Biotransformation was measured for CCN(CC)CC#CCOC(=O)C(O)(c1ccccc1)C1CCCCC1.Cl (stereo not given) [OXYBUTYNIN CHLORIDE] ?
A) Compound metabolized

Q) Any idea what Bacterial Biotransformation was measured for CCOC(=O)[C@H](CCc1ccccc1)N[C@@H](C)C(=O)N1[C@H](C(=O)O)C[C@@H]2CCC[C@@H]21 ?
A) Compound metabolized

Q) Any idea what Bacterial Biotransformation was measured for CCCC1O[C@@H]2C[C@H]3[C@@H]4CCC5=CC(=O)C=C[C@]5(C)[C@H]4[C@@H](O)C[C@]3(C)[C@]2(C(=O)CO)O1 (stereo not given in full) [BUDESONIDE] ?
A) Compound metabolized

Q) Any idea what Bacterial Biotransformation was measured for COc1cc2nc(N(C)CCCNC(=O)C3CCCO3)nc(N)c2cc1OC (stereo not given) ?
A) Compound NOT metabolized

Q) Any idea what Bacterial Biotransformation was measured for NC(CO)(CO)CO.O=C(c1ccccc1)c1ccc2n1CCC2C(=O)O (stereo not given) ?
A) Compound metabolized

Continuing:
Q) Any idea what Bacterial Biotransformation was measured for COc1ccc2c(c1OC)C(=O)O[C@@H]2[C@H]1c2c(cc3c(c2OC)OCO3)CCN1C ?
A) Compound NOT metabolized

Q) Any idea what Bacterial Biotransformation was measured for COc1ccccc1OCC(O)COC(N)=O (stereo not given) ?
A) Compound NOT metabolized

Q) Any idea what Bacterial Biotransformation was measured for CC(=O)OCC(=O)[C@@]1(O)[C@@H](C)C[C@H]2[C@@H]3CCC4=CC(=O)C=C[C@]4(C)[C@@]3(F)[C@@H](O)C[C@@]21C [BETAMETHASONE ACETATE] ?
A) Compound metabolized

Q) Any idea what Bacterial Biotransformation was measured for CC(C)(C#N)c1cc(Cn2cncn2)cc(C(C)(C)C#N)c1 ?
A) Compound NOT metabolized

Q) Any idea what Bacterial Biotransformation was measured for COC(=O)[C@H]1[C@H]2C[C@@H]3c4[nH]c5cc(OC)ccc5c4CCN3C[C@H]2C[C@@H](OC(=O)c2cc(OC)c(OC)c(OC)c2)[C@@H]1OC ?
A) Compound NOT metabolized
